target: Phospho-EGFR (Tyr1068) in A431 cells (Homo sapiens, UniProt P00533); construct: endogenous in cells; experiment: HTRF pEGFR/total EGFR assay in A431 cells (EGF stimulated); details: compound 2.5 hours then 100 ng/ml EGF 30 mins, ratio pEGFR/total EGFR
Sequence (P00533 25-1210): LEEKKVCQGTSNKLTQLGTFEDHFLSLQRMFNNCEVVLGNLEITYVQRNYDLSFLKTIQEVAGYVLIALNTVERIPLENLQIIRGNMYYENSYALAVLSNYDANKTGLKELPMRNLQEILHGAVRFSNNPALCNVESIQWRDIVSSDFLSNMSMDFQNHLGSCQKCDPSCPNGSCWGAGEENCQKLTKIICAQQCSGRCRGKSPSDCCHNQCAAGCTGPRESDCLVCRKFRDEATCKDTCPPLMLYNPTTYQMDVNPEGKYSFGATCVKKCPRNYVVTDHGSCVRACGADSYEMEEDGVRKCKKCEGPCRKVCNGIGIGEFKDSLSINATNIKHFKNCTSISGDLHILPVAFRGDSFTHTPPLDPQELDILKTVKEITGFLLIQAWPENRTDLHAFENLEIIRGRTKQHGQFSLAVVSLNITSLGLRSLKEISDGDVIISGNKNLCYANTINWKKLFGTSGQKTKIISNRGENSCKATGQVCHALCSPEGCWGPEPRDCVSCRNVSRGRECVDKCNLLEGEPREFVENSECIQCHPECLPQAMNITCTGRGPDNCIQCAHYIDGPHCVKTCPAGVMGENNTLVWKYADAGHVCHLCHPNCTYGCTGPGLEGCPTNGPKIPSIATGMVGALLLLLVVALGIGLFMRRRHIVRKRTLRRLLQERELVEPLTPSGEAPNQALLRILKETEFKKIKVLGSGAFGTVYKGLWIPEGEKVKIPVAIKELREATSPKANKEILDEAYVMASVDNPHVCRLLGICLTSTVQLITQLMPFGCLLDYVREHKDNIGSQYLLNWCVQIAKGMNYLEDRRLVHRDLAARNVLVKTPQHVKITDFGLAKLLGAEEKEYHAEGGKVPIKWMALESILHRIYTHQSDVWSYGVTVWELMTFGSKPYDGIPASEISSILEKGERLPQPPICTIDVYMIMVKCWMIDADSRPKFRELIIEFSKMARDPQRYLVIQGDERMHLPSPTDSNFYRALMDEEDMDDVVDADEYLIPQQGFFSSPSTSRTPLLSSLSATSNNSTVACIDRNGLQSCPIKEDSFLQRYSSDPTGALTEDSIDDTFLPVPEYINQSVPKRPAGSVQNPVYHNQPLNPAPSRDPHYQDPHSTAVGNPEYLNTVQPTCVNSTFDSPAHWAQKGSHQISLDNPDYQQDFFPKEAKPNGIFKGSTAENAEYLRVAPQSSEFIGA
pIC50: −log10 of the molar value.
outcome.measure: pIC50

compound: C#Cc1cc(N2C(=O)NCC23CCCC3)nc2nc(Nc3ccc(S(=O)(=O)N(C)CCN(C)C)cc3)ncc12 [Example 98]
system.tested: Phospho-EGFR (Tyr1068) in A431 cells (Homo sapiens, UniProt P00533)
pIC50: 5.52 to 6.00
--
compound: C#Cc1cc(OC)nc2nc(Nc3cccc(CN(C)C4CCC4)c3)ncc12 [Example 4]
system.tested: Phospho-EGFR (Tyr1068) in A431 cells (Homo sapiens, UniProt P00533)
pIC50: < 5.52
--
compound: C#Cc1cc(NC(=O)NC2(C)CCOC2)nc2nc(Nc3ccc(N4CCN(C)CC4)cc3)ncc12 (centres unmarked) [Example 62]
system.tested: Phospho-EGFR (Tyr1068) in A431 cells (Homo sapiens, UniProt P00533)
pIC50: 6.00 to 6.30
--
compound: C#Cc1cc(N2C(=O)OCC2C2CCCC2)nc2nc(Nc3ccc(N4CCNCC4)cc3)ncc12 (centres unmarked) [Example 115]
system.tested: Phospho-EGFR (Tyr1068) in A431 cells (Homo sapiens, UniProt P00533)
pIC50: < 5.52

Please tell me: pIC50 of C#Cc1cc(N2C(=O)NCC23CCCC3)nc2nc(Nc3ccc(N4CCOCC4)cc3)ncc12 [Example 91] , system Phospho-EGFR (Tyr1068) in A431 cells (Homo sapiens, UniProt P00533)?
5.52 to 6.00

Please tell me: pIC50 of C#Cc1cc(NC(=O)NC2CCCC2)nc2nc(Nc3ccc(OC4CN(C)C4)cc3)ncc12 [Example 80] , system Phospho-EGFR (Tyr1068) in A431 cells (Homo sapiens, UniProt P00533)?
5.52 to 6.00

Please tell me: pIC50 of C#Cc1cc(N(C)C)nc2nc(Nc3ccc(N(C)CCN(C)C)cc3)ncc12 [Example 24] , system Phospho-EGFR (Tyr1068) in A431 cells (Homo sapiens, UniProt P00533)?
< 5.52

Please tell me: pIC50 of C#Cc1cc(NC(=O)NC2CCCC2)nc2nc(Nc3ccc(N4CCOCC4)cc3)ncc12 [Example 75] , system Phospho-EGFR (Tyr1068) in A431 cells (Homo sapiens, UniProt P00533)?
> 6.30
